Provide the reported activity at 10 min, 1 µM of each item.
System: CYP1A
ASSAY_NAME: in vitro
CONDITION_SET: nude, mouse, pH 7.8
Kindly answer with a numeric value in %, unit omitted.

Task: Look at this compound and give its reported activity at 10 min, 1 µM. O=c1cc(-c2ccc(O)cc2)oc2cc(O)cc(O)c12
Output: 118

Task: Please answer likewise for O=C(O)/C=C/c1ccccc1 [Trans-cinnamic acid]
Output: 109

* * *

Tested on: CYP1A
ASSAY_NAME: Dermal microsomal CYP1A enzymatic activity (7-ethoxyresorufin-O-deethylase), inhibition or enhancement
CONDITION_SET: nude, mouse, pH 7.8
Excerpt: Nude mice were sacrificed by decapitation. The precipitate containing the microsomes was obtained.
Provide the reported activity at 10 min, 1 µM of each item.
Kindly answer with a numeric value in %, unit omitted.

Task: Look at this compound and give its reported activity at 10 min, 1 µM. O=c1c(-c2ccc(O)cc2)coc2cc(O[C@@H]3O[C@H](CO)[C@@H](O)[C@H](O)[C@H]3O)ccc12
Output: 111

Task: Please answer likewise for O=c1ccc2ccc(O)cc2o1
Output: 72.5

Task: Please answer likewise for C=C[C@H]1[C@H](O[C@@H]2O[C@H](CO)[C@@H](O)[C@H](O)[C@H]2O)OC=C2C(=O)OCC[C@]21O
Output: 98.5

Task: Please answer likewise for COc1ccc(-c2cc(=O)c3c(O)cc(O[C@@H]4O[C@H](CO[C@@H]5O[C@@H](C)[C@H](O)[C@@H](O)[C@H]5O)[C@@H](O)[C@H](O)[C@H]4O)cc3o2)cc1O
Output: 64.3

Task: Please answer likewise for O=c1c(O)c(-c2ccc(O)c(O)c2)oc2cc(O)cc(O)c12
Output: 67.9

Task: Please answer likewise for C=CC(=C)CCC=C(C)C
Output: 101

Task: Please answer likewise for CCCCCCCCCCCCO
Output: 88.2

Task: Please answer likewise for CC1(C)[C@@H](O[C@H]2O[C@H](C(=O)O)[C@@H](O)[C@H](O)[C@H]2O[C@@H]2O[C@H](C(=O)O)[C@@H](O)[C@H](O)[C@H]2O)CC[C@]2(C)[C@H]3C(=O)C=C4[C@@H]5C[C@@](C)(C(=O)O)CC[C@]5(C)CC[C@@]4(C)[C@]3(C)CC[C@@H]12
Output: 98.9

Task: Please answer likewise for CC(=O)OCCCc1ccccc1 [3-Phenyl propyl acetate, 3-phenylpropyl acetate]
Output: 28.3

Task: Please answer likewise for C[C@@H]1O[C@@H](Oc2c(-c3ccc(O)c(O)c3)oc3cc(O)cc(O)c3c2=O)[C@H](O)[C@H](O)[C@H]1O
Output: 87.8

Task: Please answer likewise for CC(Cc1ccc(O)c(O)c1)C(C)Cc1ccc(O)c(O)c1 (stereo not drawn) [Nordihydroguaiaretic acid]
Output: 110

Task: Please answer likewise for O=c1c(-c2ccc(O)cc2)coc2cc(O)cc(O)c12
Output: 77.4

* * *

Tested on: liver CYP1A
ASSAY_NAME: Liver microsomal CYP1A enzymatic activity, inhibition or enhancement
CONDITION_SET: at certain concentration (1, 10 or 100 μM)
PROPERTY_MEASURED: inhibitory effect on liver CYP1A activity, in words

Recorded inhibitory effect on liver CYP1A activity, in words, per entry:
COMPOUND	RESULT
CC1(C)[C@@H](O[C@H]2O[C@H](C(=O)O)[C@@H](O)[C@H](O)[C@H]2O[C@@H]2O[C@H](C(=O)O)[C@@H](O)[C@H](O)[C@H]2O)CC[C@]2(C)[C@H]3C(=O)C=C4[C@@H]5C[C@@](C)(C(=O)O)CC[C@]5(C)CC[C@@]4(C)[C@]3(C)CC[C@@H]12 [Glycyrrihizin, Glycyrrhizin]	inhibitory effects
COc1ccc([C@@H]2CC(=O)c3c(O)cc(O[C@@H]4O[C@H](CO[C@@H]5O[C@@H](C)[C@H](O)[C@@H](O)[C@H]5O)[C@@H](O)[C@H](O)[C@H]4O)cc3O2)cc1O [Hesperidin]	inhibitory effects
C[C@@H]1O[C@@H](Oc2c(-c3ccc(O)c(O)c3)oc3cc(O)cc(O)c3c2=O)[C@H](O)[C@H](O)[C@H]1O [Quercitrin]	inhibitory effects
O=c1c(O[C@@H]2O[C@H](CO)[C@@H](O)[C@H](O)[C@H]2O)c(-c2ccc(O)c(O)c2)oc2cc(O)cc(O)c12 [Isoquercitrin]	inhibitory effects
Oc1cc(O)c2c(c1)O[C@H](c1ccc(O)c(O)c1)[C@@H](O)C2 [(+)-Catechin]	inhibitory effects
CC12CCC(CC1)C(C)(C)O2 [Cineole]	inhibitory effects
CC(C)[C@@H](C)/C=C/[C@@H](C)[C@H]1CC[C@H]2C3=CC=C4C[C@@H](O)CC[C@]4(C)[C@H]3CC[C@]12C [Ergosterol]	inhibitory effects
O=C1C[C@@H](c2ccc(O)cc2)Oc2cc(O)cc(O)c21 [Narigenin]	inhibitory effects
C[C@@H]1O[C@@H](OC[C@H]2O[C@@H](Oc3c(-c4ccc(O)c(O)c4)oc4cc(O)cc(O)c4c3=O)[C@H](O)[C@@H](O)[C@@H]2O)[C@H](O)[C@H](O)[C@H]1O [Rutin]	inhibitory effects
CC1(C)CC[C@]2(C(=O)O)CC[C@]3(C)C(=CC[C@@H]4[C@@]5(C)CC[C@H](O)C(C)(C)[C@@H]5CC[C@]43C)[C@@H]2C1 [Oleanolic acid]	inhibitory effects

Task: Look at this compound and give its reported inhibitory effect on liver CYP1A activity, in words. O=C(O)[C@H]1O[C@@H](Oc2cc3oc(-c4ccccc4)cc(=O)c3c(O)c2O)[C@H](O)[C@@H](O)[C@@H]1O [Baicalin]
Output: inhibitory effects

Task: Please answer likewise for COc1ccc(-c2cc(=O)c3c(O)cc(O[C@@H]4O[C@H](CO[C@@H]5O[C@@H](C)[C@H](O)[C@@H](O)[C@H]5O)[C@@H](O)[C@H](O)[C@H]4O)cc3o2)cc1O [Diosmin]
Output: inhibitory effects

Task: Please answer likewise for C=CC(=C)CCC=C(C)C [Beta-Myrcene]
Output: inhibitory effects

* * *

System: CYP1A
ASSAY_NAME: in vitro
CONDITION_SET: nude, mouse, pH 7.8
PROPERTY_MEASURED: activity at 10 min, 100 µM (%)
Kindly answer with a numeric value in %, unit omitted.

Task: Look at this compound and give its reported activity at 10 min, 100 µM. O=C(O)/C=C/c1ccccc1 [Trans-cinnamic acid]
Output: 101

Task: Please answer likewise for O=c1cc(-c2ccc(O)cc2)oc2cc(O)cc(O)c12
Output: 53.5

* * *

System: CYP1A
ASSAY_NAME: in vitro
CONDITION_SET: nude, mouse, pH 7.8
Provide the reported activity at 10 min, 100 µM of each item.

Task: Look at this compound and give its reported activity at 10 min, 100 µM. C=C[C@H]1[C@H](O[C@@H]2O[C@H](CO)[C@@H](O)[C@H](O)[C@H]2O)OC=C2C(=O)OCC[C@]21O
Output: 105%

Task: Please answer likewise for CCCCCCCCCCCCO
Output: 52.4%

Task: Please answer likewise for C[C@@H]1O[C@@H](Oc2c(-c3ccc(O)c(O)c3)oc3cc(O)cc(O)c3c2=O)[C@H](O)[C@H](O)[C@H]1O
Output: 75%

Task: Please answer likewise for CC(Cc1ccc(O)c(O)c1)C(C)Cc1ccc(O)c(O)c1 (stereo not shown) [Nordihydroguaiaretic acid]
Output: 59.5%

* * *

Test system: liver CYP1A
ASSAY_NAME: Liver microsomal CYP1A enzymatic activity, inhibition or enhancement
CONDITION_SET: compound 10 μM; liver microsomes
PROPERTY_MEASURED: liver CYP1A activity (% of control group) (%)
Kindly answer with a numeric value in %, unit omitted.

Task: Look at this compound and give its reported liver CYP1A activity (% of control group). O=C1C[C@@H](c2ccc(O)cc2)Oc2cc(O)cc(O)c21
Output: 107.17

Task: Please answer likewise for Oc1cc(O)c2c(c1)O[C@H](c1ccc(O)c(O)c1)[C@@H](O)C2 [(+)-Catechin]
Output: 120.23

Task: Please answer likewise for Oc1cc(O)c2c(c1)O[C@H](c1ccc(O)c(O)c1)[C@H](O)C2 [(−)-Epicatechin]
Output: 139.91

Task: Please answer likewise for C[C@@H]1O[C@@H](O[C@H]2[C@H](Oc3cc(O)c4c(c3)O[C@H](c3ccc(O)cc3)CC4=O)O[C@H](CO)[C@@H](O)[C@@H]2O)[C@H](O)[C@H](O)[C@H]1O
Output: 119.79

Task: Please answer likewise for COc1ccc([C@@H]2CC(=O)c3c(O)cc(O[C@@H]4O[C@H](CO[C@@H]5O[C@@H](C)[C@H](O)[C@@H](O)[C@H]5O)[C@@H](O)[C@H](O)[C@H]4O)cc3O2)cc1O
Output: 87.38

Task: Please answer likewise for O=c1cc(-c2ccc(O)c(O)c2)oc2cc(O[C@@H]3O[C@H](CO)[C@@H](O)[C@H](O)[C@H]3O)cc(O)c12 [Luteolin-7-glucoside]
Output: 119.53

Task: Please answer likewise for O=c1cc(-c2ccccc2)oc2cc(O)c(O)c(O)c12
Output: 114.18

Task: Please answer likewise for Oc1cc(O)c2c(c1)O[C@@H](c1ccc(O)c(O)c1)[C@@H](O)C2 [(+)-Epicatechin]
Output: 129.86

Task: Please answer likewise for O=C(O)[C@H]1O[C@@H](Oc2cc3oc(-c4ccccc4)cc(=O)c3c(O)c2O)[C@H](O)[C@@H](O)[C@@H]1O
Output: 90.79

Data provenance: patent US20030166583A1
